Assay: Influence on bile secretion (choleresis) of the narcotized rat
Type: in vivo, rat (male Sprague-Dawley)
Settings: in vivo; LD50 mouse i.p. / ED50 rat i.d.; Table VI; read-out: TQ (LD50/ED50), bile secretion
Measured selectivity ratio of individual entries
Just the number, please.

- smiles entry: "CC=CC(=O)N(CCCC(=O)O)c1ccccc1-c1ccccc1"
  measured number: 30
- smiles entry: "CC(=O)N(CCCC(=O)O)c1ccccc1-c1ccccc1"
  measured number: 93.8

Fill blank: measured selectivity ratio of the compound COc1ccc(Cl)cc1C(=O)N(CCCC(=O)O)c1ccc(OC)c(-c2ccccc2)c1 is ____.
190

----------
Readings of ED50 for the listed compounds
System: stomach ulcer
Test: Antiulcerogenic (stomach-protective) action, pylorus ligature and acetylsalicylic acid
Format: in vivo, rat (female)
Settings: 4 h; rat, intraduodenally; Table IV; read-out: ED50 antiulcerogenic action (dose which reduces the mean ulcer index by 50%)
Protocol: The ulcer provocation is carried out on rats which have been made to fast for 24 hours (female, 180 to 200 g) by ligature of the pylorus (under ether narcosis) and the oral application of 100 mg/10 ml/kg acetylsalicylic acid. […] The stomach, opened longitudinally, is fixed on a cork board and, using a stereomicroscope with an enlargement of 10×, the number and size (=diameter) of any ulcers present were determined. […]
// return numeric value only (unit: mg/kg, not printed)

Please review the entries below; each comes with its answer.
- compound: "O=C(O)CCCN(C(=O)c1cccc(C(F)(F)F)c1)c1ccccc1-c1ccccc1 [Serial No. 25]"
  result type: "ED50"
  unit annotation: "mg/kg"
  measured number: 10
- compound: "CC(=O)N(CCCC(=O)O)c1ccccc1-c1ccccc1 [Serial No. 22]"
  result type: "ED50"
  unit annotation: "mg/kg"
  measured number: 55
- compound: "CC1(C)[C@@H](OC(=O)CCC(=O)O)CC[C@]2(C)[C@H]3C(=O)C=C4[C@@H]5C[C@@](C)(C(=O)O)CC[C@]5(C)CC[C@@]4(C)[C@]3(C)CC[C@@H]12 [compound 19]"
  result type: "ED50"
  unit annotation: "mg/kg"
  measured number: 50
- compound: "O=C(O)CCCN(C(=O)c1ccc(Cl)cc1)c1ccccc1-c1ccccc1 [Serial No. 31]"
  result type: "ED50"
  unit annotation: "mg/kg"
  measured number: 35

As a next step, examine the compound that follows.
I'd like to know its ED50. The compound in question is COc1ccc(Cl)cc1C(=O)N(CCCCCC(=O)O)c1ccccc1-c1ccccc1 [Serial No. 30]
10

----------
Each entry below carries its reported selectivity ratio.
Assay: Antihepatotoxic effect: duration of hexobarbital sleep of the rat after liver damage by CCl4
Conditions: rat, in vivo, TQ LD50/ED50, antihepatotoxic effect, LD50 mouse i.p. / ED50 rat p.o.; Table XI
Experimental: The compounds to be tested are administered 1 hour prior to the administration of CCl4 orally in a liquid volume of 10 ml/kg. The antihepatotoxic effect of the compounds to be tested (sodium salts in aqueous solution) is determined by the reduction of the prolongation of sleeping period caused by the CCl4 liver cell damage in the groups treated, as compared with the prolongation of the sleeping period of the CCl4 control group (=100%). […]
Could you respond with only the numeric value?

Consider the reported selectivity ratio for these compounds:
- compound: "CC(=O)N(CCCC(=O)O)c1cccc2ccccc12 [Serial No. 39, 4-[N-(α-naphthyl)acetamido]butyric acid]"
  selectivity ratio: 15
- compound: "O=C(O)CCCN(C(=O)c1ccc(Cl)cc1Cl)c1cccc2ccccc12"
  selectivity ratio: 9.2
- compound: "O=C(O)CCCN(C(=O)c1ccc(Cl)cc1)c1cccc2ccccc12"
  selectivity ratio: 3.5

Next compound, selectivity ratio to be filled in.
Which selectivity ratio is listed for COc1ccc2cccc(N(CCCC(=O)O)C(=O)c3ccc(Cl)cc3)c2c1 ?
7.5

----------
Assay: Determination of toxicity (lethal action on the mouse after intraperitoneal application)
Type: in vivo
Settings: in vivo, ip; mouse; Table I
Would you mind sorting the entries by LD50 at 336 h according to these classes? 0 (below 200 mg/kg), 1 (200 mg/kg to below 400 mg/kg), 2 (400 mg/kg or more)

- molecule: "O=C(O)CCCN(C(=O)c1ccc(Cl)cc1)C1CCCCCCC1"
  class name: 0
- molecule: "CC(=O)N(CCCC(=O)O)C(c1ccccc1)c1ccccc1 [Serial No. 14, N-acetyl-4-benzhydrylaminobutyric acid]"
  class name: 2
- molecule: "O=C(O)CCCN(Cc1ccccc1)C(=O)c1ccc(Cl)cc1"
  class name: 1
- molecule: "COc1ccc(CCN(CCCC(=O)O)C(=O)c2ccc(Cl)cc2)cc1OC"
  class name: 2
- molecule: "CC(C)(C)CC(C)(C)N(CCCC(=O)O)C(=O)c1ccc(Cl)cc1"
  class name: 1
- molecule: "O=C(O)CCCN(C(=O)c1ccc(Cl)cc1)C(c1ccccc1)c1ccccc1"
  class name: 1

Attention now turns to another entry.
Exercise: read the entry C#CC1(N(CCCC(=O)O)C(=O)c2ccc(Cl)cc2)CCCCC1 and state which class it falls under.
0

----------
// reported selectivity ratio for each item listed
Test: Influence on bile secretion (choleresis) of the narcotized rat
Type: in vivo, rat (male Sprague-Dawley)
Conditions: in vivo; LD50 mouse i.p. / ED50 rat i.d.; Table II; read-out: TQ (LD50/ED50), bile secretion
Just the number, please.

- smiles entry: "CCC(C)(C)N(CCCC(=O)O)C(=O)c1ccc(Cl)cc1Cl"
  selectivity ratio: 32
- smiles entry: "COc1ccc(CCN(CCCC(=O)O)C(=O)c2ccc(Cl)cc2)cc1OC"
  selectivity ratio: 43
- smiles entry: "CC(C)(C)CC(C)(C)N(CCCC(=O)O)C(=O)c1ccc(F)cc1"
  selectivity ratio: 57

Next compound, selectivity ratio to be filled in.
Suppose we examine the compound CC(C)(C)N(CCCC(=O)O)C(=O)c1ccc(Cl)cc1 ; what selectivity ratio value has been reported?
57

----------
Below, each entry is listed alongside its reported LD50 at 336 h.
Assay: Determination of toxicity (lethal action on the mouse after intraperitoneal application)
Assay type: in vivo
Conditions: in vivo, ip; mouse i.p.; Table IX
Your answer should be a plain number; it is taken to be in mg/kg.

- molecule: "O=C(O)CCCCN(C(=O)c1ccc(Cl)cc1)c1ccc2c(c1)CCC2 [compound 54]"
  measured number: 160
- molecule: "CC(CCC(=O)O)N(C(=O)c1ccc(Cl)cc1)c1cccc2ccccc12 (stereo not drawn) [Serial No. 45]"
  measured number: 180
- molecule: "CCOc1ccc(N(CCCC(=O)O)C(=O)c2ccc(Cl)cc2)c2ccccc12 [Serial No. 43]"
  measured number: 70

Fill in the blank: the reported LD50 at 336 h of O=C(O)CCCN(C(=O)c1ccc(Cl)c(Cl)c1)c1ccc2c(c1)CCC2 [compound 53] is ____.
180

----------
Test system: liver damage by CCl4
Assay: Antihepatotoxic effect: duration of hexobarbital sleep of the rat after liver damage by CCl4
Settings: Rattus norvegicus, po, read-out: ED50 antihepatotoxic effect (shortens hexobarbital narcosis by 50%)
hey, just use rule met if measured ED50 is less than 20 mg/kg, otherwise rule not met

Hello, I'm reviewing records and need to know if ED50 of O=C(O)CCCN(C(=O)c1ccc(Cl)cc1)c1ccc(-c2ccccc2)cc1 is below 20 mg/kg. Could you check?
rule not met

----------
Assay: Determination of toxicity (lethal action on the mouse after intraperitoneal application)
Assay type: in vivo
Conditions: in vivo, ip; mouse; Table IV
result type: LD50 at 336 h (mg/kg)
Write the answer as a number in mg/kg, unit excluded.

- molecule: "O=C(O)CCCN(C(=O)c1ccc(Cl)cc1)c1ccccc1-c1ccccc1 [Serial No. 31]"
  LD50 at 336 h, mg/kg: 180
- molecule: "CC(=O)N(CCCC(=O)O)c1ccccc1-c1ccccc1 [Serial No. 22]"
  LD50 at 336 h, mg/kg: 750
- molecule: "O=C(O)CCCN(C(=O)c1cccc(C(F)(F)F)c1)c1ccccc1-c1ccccc1 [Serial No. 25]"
  LD50 at 336 h, mg/kg: 110
- molecule: "O=C(O)CCCCCN(C(=O)c1ccc(Cl)cc1)c1ccccc1-c1ccccc1 [Serial No. 24]"
  LD50 at 336 h, mg/kg: 130
- molecule: "CC=CC(=O)N(CCCC(=O)O)c1ccccc1-c1ccccc1 [Serial No. 27]"
  LD50 at 336 h, mg/kg: 300
- molecule: "COc1ccc(N(CCCC(=O)O)C(=O)c2ccc(Cl)cc2)cc1-c1ccccc1 [Serial No. 35]"
  LD50 at 336 h, mg/kg: 120
- molecule: "O=C(O)CCCN(C(=O)c1ccc(Cl)cc1)c1ccc(-c2ccccc2)cc1 [Serial No. 23]"
  LD50 at 336 h, mg/kg: 120
- molecule: "O=C(O)CCCN(C(=O)c1ccc(F)cc1)c1ccccc1-c1ccccc1 [Serial No. 26]"
  LD50 at 336 h, mg/kg: 210

Which LD50 at 336 h is reported for this molecule? CC1(C)[C@@H](OC(=O)CCC(=O)O)CC[C@]2(C)[C@H]3C(=O)C=C4[C@@H]5C[C@@](C)(C(=O)O)CC[C@]5(C)CC[C@@]4(C)[C@]3(C)CC[C@@H]12 [compound 19]
120
